# MEASURED_TARGET: Recombinant human Mat2a (Homo sapiens (Human), UniProt P31153)
# Sequence (P31153 whole entry): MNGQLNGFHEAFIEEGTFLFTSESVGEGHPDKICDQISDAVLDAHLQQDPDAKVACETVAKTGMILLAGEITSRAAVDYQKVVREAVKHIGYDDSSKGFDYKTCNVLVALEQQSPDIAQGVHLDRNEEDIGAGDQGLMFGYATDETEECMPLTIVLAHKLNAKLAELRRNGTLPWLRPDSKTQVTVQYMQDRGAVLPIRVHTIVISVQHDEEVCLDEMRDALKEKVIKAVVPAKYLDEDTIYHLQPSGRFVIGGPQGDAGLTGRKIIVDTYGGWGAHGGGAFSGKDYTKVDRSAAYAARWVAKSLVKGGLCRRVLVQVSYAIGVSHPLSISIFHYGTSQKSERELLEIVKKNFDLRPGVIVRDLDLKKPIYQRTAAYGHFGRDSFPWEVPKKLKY
# TEST_DESCRIPTION: Determination of Mat2A activity: 384 well format absorbance-based Mat2A inhibition assay
# RECORDED_CONDITIONS: 12.5 nM Mat2A, 100 μM ATP and Methionine, 2% DMSO, 120 minutes at RT, Biomol Green, absorbance at 635 nm
# IC50 listing for each entry below

| COMPOUND | MEASURED_TARGET | IC50 |
| --- | --- | --- |
| Cc1ncccc1C(=O)n1nc(N)c2ccc(C3CC3(F)F)nc21 (centres unmarked) | Recombinant human Mat2a (Homo sapiens (Human), UniProt P31153) | 0.022 µM |
| Cc1ccccc1C(=O)n1nc(N)c2cc(F)c(N3CCCC3)nc21 | Recombinant human Mat2a (Homo sapiens (Human), UniProt P31153) | 0.11 µM |
| COc1cc(F)ccc1C(=O)n1nc(N)c2ccc(C3CC3)nc21 | Recombinant human Mat2a (Homo sapiens (Human), UniProt P31153) | 0.3 µM |
| COc1c(F)cccc1C(=O)n1nc(N)c2ccc(C3CC3)nc21 | Recombinant human Mat2a (Homo sapiens (Human), UniProt P31153) | 0.11 µM |
| COc1ccccc1C(=O)n1nc(N)c2ccc(C(C)(C)C)nc21 | Recombinant human Mat2a (Homo sapiens (Human), UniProt P31153) | 0.099 µM |

###

# MEASURED_TARGET: Recombinant human Mat2a (Homo sapiens (Human), UniProt P31153)
# TEST_DESCRIPTION: Determination of Mat2A activity: 384 well format absorbance-based Mat2A inhibition assay
# Type: biochemical
# RECORDED_CONDITIONS: 12.5 nM Mat2A, 100 μM ATP and Methionine, 2% DMSO, 120 minutes at RT, Biomol Green, absorbance at 635 nm
pIC50: −log10 of the molar value.
The following compounds are listed with their measured pIC50 values.

| COMPOUND | pIC50 |
| --- | --- |
| COc1ccccc1C(=O)n1nc(N)c2ccc([C@H]3C[C@@H]3F)nc21 (racemic) [Example 39] | 7.19 |
| C[C@H]1C(=O)NCC[C@H]1C(=O)n1nc(N)c2ccc(C3CC3)nc21 (racemic) [Example 59] | 7.48 |
| COc1ccccc1C(=O)n1nc(N)c2ccc(C3=CCOC3)nc21 [Example 35] | 7.77 |
| Cc1ccccc1C(=O)n1nc(N)c2ccc(C3=CCOC3)nc21 [Example 36] | 7.17 |

###

Listing of recorded pIC50 by entry.
# MEASURED_TARGET: Recombinant human Mat2a (Homo sapiens (Human), UniProt P31153)
# TEST_DESCRIPTION: Determination of Mat2A activity: 384 well format absorbance-based Mat2A inhibition assay
# RECORDED_CONDITIONS: 12.5 nM Mat2A, 100 μM ATP and Methionine, 2% DMSO, 120 minutes at RT, Biomol Green, absorbance at 635 nm
pIC50: −log10 of the molar value.

| COMPOUND | pIC50 |
| --- | --- |
| CC1OCCC1C(=O)n1nc(N)c2ccc(C3CC3(F)F)nc21 (stereo not shown) | 6.80 |
| Cc1c(C#N)cccc1C(=O)n1nc(N)c2ccc(C3CC3)nc21 | 7.27 |
| Nc1nn(C(=O)c2ccccc2Cl)c2nc(N3CCCC3)ccc12 | 6.85 |
| CC1OCCC1C(=O)n1nc(N)c2ccc(C3CC3)nc21 (stereo not shown) | 7.39 |
| Cc1ccccc1C(=O)n1nc(N)c2ccc(C3(C)CC3)nc21 | 6.89 |
| Cc1ccccc1C(=O)n1nc(N)c2cnc(N3CCCC3)nc21 | 6.55 |
| COc1ccccc1C(=O)n1nc(N)c2ccc(C3CC3)nc21 | 6.92 |
| COc1ccccc1C(=O)n1nc(N)c2cnc(N3CCCC3)nc21 | 7.19 |
| COc1ccccc1C(=O)n1nc(N)c2ccc(C3CC3(F)F)nc21 (stereo not shown) | 7.49 |
| Cc1ccccc1C(=O)n1nc(N)c2ccc(N3CC(F)(F)C3)nc21 | 6.47 |
| COc1ccccc1C(=O)n1nc(N)c2cc3c(nc21)CC(C)CC3 (stereo not shown) | 6.92 |
| Nc1nn(C(=O)c2cccnc2C(F)(F)F)c2nc(C3CC3)ccc12 | 7.51 |
| Cc1ccccc1C(=O)n1nc(N)c2ccc([C@H]3C[C@@H]3C)nc21 (racemic) | 7.55 |
| COc1c(F)cccc1C(=O)n1nc(N)c2ccc(C3=CCOC3)nc21 | 7.60 |
| COc1ccccc1C(=O)n1nc(N)c2ccc(C(F)(F)F)nc21 | 6.92 |
| COc1c(C#N)cccc1C(=O)n1nc(N)c2ccc(C3CC3)nc21 | 7.43 |
| COc1ccccc1C(=O)n1nc(N)c2ccc(N3C[C@@H]4CC[C@H]3C4)nc21 (racemic) | 6.77 |
| COc1ccccc1C(=O)n1nc(N)c2ccc(N3CC(F)(F)C3)nc21 | 7.16 |
| COc1ccccc1C(=O)n1nc(N)c2cc(Cl)c(C3CC3)nc21 | 7.25 |
